Cited source: patent US20250320213A1

Molecular target: STAT6 (Homo sapiens, UniProt P42226)
Construct: stably transfected HaCaT keratinocyte cell line, which expresses NanoLuc luciferase reporter gene under the transcriptional control of the STAT6 responsive promoter; endogenous in cells; host or cells: HaCaT keratinocyte reporter cell line (stably transfected with a NanoLuc reporter)
Sequence (P42226 whole entry): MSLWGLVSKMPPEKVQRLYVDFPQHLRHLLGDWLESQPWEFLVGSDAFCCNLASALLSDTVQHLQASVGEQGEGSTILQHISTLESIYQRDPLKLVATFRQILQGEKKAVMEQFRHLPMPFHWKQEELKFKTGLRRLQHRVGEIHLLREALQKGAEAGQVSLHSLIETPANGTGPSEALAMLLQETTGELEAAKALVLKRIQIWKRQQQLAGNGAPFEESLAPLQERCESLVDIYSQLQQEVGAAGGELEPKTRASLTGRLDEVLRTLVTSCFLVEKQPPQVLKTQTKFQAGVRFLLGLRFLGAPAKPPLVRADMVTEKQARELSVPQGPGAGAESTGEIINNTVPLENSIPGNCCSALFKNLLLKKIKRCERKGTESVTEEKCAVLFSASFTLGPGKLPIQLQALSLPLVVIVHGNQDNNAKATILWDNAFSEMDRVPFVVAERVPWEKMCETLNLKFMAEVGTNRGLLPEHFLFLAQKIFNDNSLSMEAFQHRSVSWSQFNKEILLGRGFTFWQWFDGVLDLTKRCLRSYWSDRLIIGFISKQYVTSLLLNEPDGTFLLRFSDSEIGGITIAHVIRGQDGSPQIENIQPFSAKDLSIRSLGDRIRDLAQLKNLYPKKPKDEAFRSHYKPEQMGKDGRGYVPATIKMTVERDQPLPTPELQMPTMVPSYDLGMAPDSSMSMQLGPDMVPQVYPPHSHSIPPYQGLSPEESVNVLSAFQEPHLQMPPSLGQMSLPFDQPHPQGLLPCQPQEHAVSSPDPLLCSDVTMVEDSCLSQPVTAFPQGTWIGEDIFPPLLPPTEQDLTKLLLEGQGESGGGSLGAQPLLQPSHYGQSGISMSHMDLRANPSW
Assay: STAT6 Reporter Luciferase Assay (IL-13 stimulated HaCaT keratinocyte NanoLuc reporter cells)
Assay type: cell-based
Conditions: STAT6 NanoLuc luciferase reporter, IL-13 stimulated HaCaT keratinocyte cells; read-out: Reporter EC50
Text: Pharmacological measurements of STAT6 transcriptional activity through the IL-13-IL-13 receptor/IL-4 receptor pathway were made with a stably transfected HaCaT keratinocyte cell line, which expresses NanoLuc luciferase reporter gene under the transcriptional control of the STAT6 responsive promoter for IL-13Ra2. The readout of the STAT6 activity utilized Promega Nano-Glo Luciferase assay kit. […]
pEC50: −log10 of the molar value.
OUTCOME MEASURE: pEC50

Here's what some known entries look like.
COMPOUND	pEC50
CC(C)n1nc(C(=O)NCc2ccc(NC(=O)N3CCCC3)cc2)c2c1CCN(c1ccc(C(=O)N(C)C)cn1)C2 [Example 136]	7.92
CC(C)n1nc(C(=O)NCc2ccc(NC(=O)N(C)C)cc2)c2c1CCN(c1ccc(N3CCCC3=O)cn1)C2 [Example 1]	7.96

a = CO[C@@H]1CCN(C(=O)Nc2ccc(CNC(=O)c3nn(C(C)C)c4c3CN(c3ccc(C(=O)N(C)C)cn3)CC4)cc2)C1 [Example 179]
b = CC(C)n1nc(C(=O)NCc2ccc(NC(=O)N3CCN(C)CC3)cc2)c2c1[C@@H](C)CN(c1ccc(C(=O)N(C)C)cc1)C2 [Example 132]
c = CC(C)n1nc(C(=O)NCc2ccc(NC(=O)N(C)C)cc2)c2c1CCN(c1ccc(N3C(=O)CC[C@@H]3CO)cn1)C2 [Example 88]
d = CCC1CN(c2ccc(C(=O)N(C)C)cn2)Cc2c(C(=O)NCc3ccc(NC(=O)N(C)C)cc3)nn(C)c21 (single isomer, unassigned) [Example 58]
Sort (4 compounds) by pEC50: min first. // respond by listing labels in the order requested
c, d, a, b
